The measurements presented in this section are drawn from patent US11407765B2.

- method summary: In vivo pharmacokinetics in rat (oral bioavailability, clearance)
- conditions: in vivo
For each of the compounds below, state its clearance.
One number for each entry, in mL/min/kg.

{"compound": "C=CC(=O)N1C[C@H]2COc3c(Cl)c(-c4c(O)cccc4F)c(F)c4ncnc(c34)N2C[C@H]1C (single isomer, unassigned) [Example 4]", "value kind": "clearance", "reported measurement": 29}

# context switch: different compound, same clearance
[Q] Value lookup for clearance; key = C=CC(=O)N1CCN2c3ncnc4c(F)c(-c5c(O)cccc5F)c(Cl)c(c34)OC[C@@H]2C1 [R^5 desmethyl compound, reference compound]
[A] 962

* * *

- subject of test: KRasG12C (Homo sapiens, UniProt P01116, G12C)
- Construct: biotin (biotinylated); made in house
- Sequence (P01116 1-188 isoform P01116-2 G12C): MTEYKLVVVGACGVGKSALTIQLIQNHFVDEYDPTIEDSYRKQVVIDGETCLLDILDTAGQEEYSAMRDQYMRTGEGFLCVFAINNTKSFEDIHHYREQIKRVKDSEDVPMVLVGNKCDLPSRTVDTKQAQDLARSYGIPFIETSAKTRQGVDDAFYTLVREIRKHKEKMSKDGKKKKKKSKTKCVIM
- method summary: KRasG12C mass spectrometry adducting assay
- Format: binding
- conditions: 10 μM test compound, 4 μM GDP loaded KRasG12C, 4 hours
With a cut-off of 90%, any KRasG12C M. S. Binding Mean adduct % strictly below it is called criterion met; any KRasG12C M. S. Binding Mean adduct % meeting it or above is called criterion not met.

{"compound": "C=CC(=O)N1CCN2c3ncnc4c(F)c(-c5c(C)ccc6[nH]nnc56)c(Cl)c(c34)OC[C@@H]2C1 (single isomer, unassigned) [Example 19]", "category": "criterion not met"}

[Q] is_below(KRasG12C M. S. Binding Mean adduct %, 90%) for C=CC(=O)N1CCN2c3ncnc4c(F)c(-c5n[nH]c6ccccc56)c(Cl)c(c34)OC[C@@H]2C1 [Example 11] ?
[A] criterion not met

[Q] is_below(KRasG12C M. S. Binding Mean adduct %, 90%) for C=CC(=O)N1CCN2c3ncnc4c(F)c(-c5c(F)ccc6[nH]cnc56)c(Cl)c(c34)OC[C@@H]2C1 (single isomer, unassigned) [Example 20] ?
[A] criterion not met

* * *

- method summary: Caco AB cell permeability
- Type: in vitro ADME
- conditions: human, Caco-2; A to B
For each of the molecules below, state its Papp A→B.
Give bare numbers, in ×10⁻⁶ cm/s.

Solved cases (2 shown):
{"molecule": "C=CC(=O)N1CCN2c3ncnc4c(F)c(-c5c(O)cccc5F)c(Cl)c(c34)OC[C@@H]2C1 [R^5 desmethyl compound, reference compound]", "Papp A→B [×10⁻⁶ cm/s]": 5.8}
{"molecule": "C=CC(=O)N1C[C@H]2COc3c(Cl)c(-c4c(O)cccc4F)c(F)c4ncnc(c34)N2C[C@H]1C (single isomer, unassigned) [Example 4]", "Papp A→B [×10⁻⁶ cm/s]": 58}

# context switch: different molecule, same Papp A→B
[Q] Value lookup for Papp A→B; key = C=CC(=O)N1C[C@@H]2CCOc3c(Cl)c(-c4c(O)cccc4F)c(F)c4ncnc(c34)N2C[C@H]1C (single isomer, unassigned) [Example 39]
[A] 72

* * *

- method summary: In vivo pharmacokinetics in rat (oral bioavailability, clearance)
- conditions: in vivo, po
value kind: bioavailability

[Q] Value lookup for bioavailability; key = C=CC(=O)N1CCN2c3ncnc4c(F)c(-c5c(O)cccc5F)c(Cl)c(c34)OC[C@@H]2C1 [R^5 desmethyl compound, reference compound]
[A] 0%

* * *

- subject of test: KRasG12C (Homo sapiens, UniProt P01116, G12C)
- Construct: biotin (biotinylated); made in house
- method summary: KRasG12C functional assay (HTRF, SOS-mediated nucleotide exchange / Raf RBD binding)
- Format: biochemical
- conditions: 4 hrs incubation with GDP loaded biotinylated KRasG12C; single experiment or average of two or more; read-out: KRasG12C functional assay IC50 value
With a cut-off of 200 nM, any IC50 strictly below it is called class 1; any IC50 meeting it or above is called class 0.

{"molecule": "C=CC(=O)N1CCN2c3ncnc4c(F)c(-c5c(C)ccc6[nH]nnc56)c(Cl)c(c34)OC[C@@H]2C1 (single isomer, unassigned) [Example 18]", "category": "class 0"}
{"molecule": "Cc1ccc2[nH]cnc2c1-c1c(Cl)c2c3c(ncnc3c1F)N1C[C@@H](C)N(C(=O)/C=C/CN(C)C)C[C@H]1CO2 (single isomer, unassigned) [Example 50]", "category": "class 1"}
{"molecule": "CN(C)C/C=C/C(=O)N1CCN2c3ncnc4c(F)c(-c5c(O)cccc5F)c(Cl)c(c34)OC[C@@H]2C1 (single isomer, unassigned) [Example 15]", "category": "class 0"}
{"molecule": "C=CC(=O)N1CCN2c3ncnc4c(F)c(-c5c(C)ccc6[nH]cnc56)c(Cl)c(c34)OC[C@@H]2C1 (single isomer, unassigned) [Example 8]", "category": "class 1"}

Now take the following molecule into account.
[Q] is_below(IC50, 200 nM) for C=CC(=O)N1C[C@H]2COc3c(Cl)c(-c4c(O)cccc4F)c(F)c4ncnc(c34)N2C[C@H]1C (single isomer, unassigned) [Example 5] ?
[A] class 0

* * *

For each of the molecules below, state its pIC50.
- subject of test: KRasG12C (Homo sapiens, UniProt P01116, G12C)
- Construct: biotin (biotinylated); made in house
- method summary: KRasG12C functional assay (HTRF, SOS-mediated nucleotide exchange / Raf RBD binding)
- Assay type: biochemical
- conditions: 4 hrs incubation with GDP loaded biotinylated KRasG12C; single experiment or average of two or more; read-out: KRasG12C functional assay IC50 value
- Description: KRasG12C Functional Assay All enzyme and substrate solutions were prepared in assay buffer containing 20 mM HEPES (pH 7.5), 5 mM MgCl2, 150 mM NaCl, and 0.01% Tween 20. […] This is detected simultaneously via the specific binding interaction between active GTPγS KRas^G12C with GST-Raf RBD which brings the europium and XL665 into close proximity enabling an increased FRET signal to be detected on a Pherastar (BMG) plate reader equipped with the HTRF filter module. […]
Give bare numbers, as −log10 of the molar value.

{"molecule": "C=CC(=O)N1CCN2c3ncnc4c(F)c(-c5c(F)ccc6c5ncn6C)c(Cl)c(c34)OC[C@@H]2C1 (single isomer, unassigned) [Example 25]", "subject of test": "KRasG12C (Homo sapiens, UniProt P01116, G12C)", "pIC50": 4.86}
{"molecule": "C=CC(=O)N1CCN2c3ncnc4c(F)c(-c5c(C)ccc6cc[nH]c(=O)c56)c(Cl)c(c34)OC[C@@H]2C1 (single isomer, unassigned) [Example 16]", "subject of test": "KRasG12C (Homo sapiens, UniProt P01116, G12C)", "pIC50": 8.00}
{"molecule": "C=CC(=O)N1CCN2c3ncnc4c(F)c(-c5c(C)ccc6c5C(=O)NC6)c(Cl)c(c34)OC[C@@H]2C1 (single isomer, unassigned) [Example 2]", "subject of test": "KRasG12C (Homo sapiens, UniProt P01116, G12C)", "pIC50": 6.54}
{"molecule": "C=CC(=O)N1C[C@H]2COc3c(Cl)c(-c4c(C)ccc5[nH]cnc45)c(F)c4ncnc(c34)N2C[C@H]1C (single isomer, unassigned) [Example 47]", "subject of test": "KRasG12C (Homo sapiens, UniProt P01116, G12C)", "pIC50": 4.95}

# context switch: different molecule, same pIC50
[Q] Value lookup for pIC50; key = C=CC(=O)N1CCN2c3ncnc4c(F)c(-c5c(C)ccc6cc[nH]c(=O)c56)c(Cl)c(c34)OCCC2C1 (single isomer, unassigned) [Example 34]
[A] 5.92

* * *

- subject of test: KRasG12C (Homo sapiens, UniProt P01116, G12C)
- Construct: biotin (biotinylated); made in house
- method summary: KRasG12C mass spectrometry adducting assay
- Assay type: binding
- conditions: 10 μM test compound, 4 μM GDP loaded KRasG12C, 4 hours
For each of the molecules below, state its KRasG12C M. S. Binding Mean adduct %.
One number for each entry, in %.

{"molecule": "C=CC(=O)N1CCN2c3ncnc4c(F)c(-c5c(F)ccc6cc[nH]c(=O)c56)c(Cl)c(c34)OC[C@@H]2C1 (single isomer, unassigned)", "readout units": "%", "KRasG12C M. S. Binding Mean adduct %": 92}

Each molecule below has a reported value. Please supply its KRasG12C M. S. Binding Mean adduct %.
1. C=CC(=O)N1CCN2c3ncnc4c(F)c(-c5cccc6cc[nH]c(=O)c56)c(Cl)c(c34)OC[C@@H]2C1
2. C=CC(=O)N1CCN2c3ncnc4c(F)c(-c5c(C)ccc6[nH]cnc56)c(Cl)c(c34)OC[C@@H]2C1 (single isomer, unassigned) [Example 9]

[A]
[94, 22]

* * *

For each of the molecules below, state its KRasG12C M. S. Binding Mean adduct %.
- subject of test: KRasG12C (Homo sapiens, UniProt P01116, G12C)
- Construct: biotin (biotinylated); made in house
- method summary: KRasG12C mass spectrometry adducting assay
- Assay type: binding
- conditions: 10 μM test compound, 4 μM GDP loaded KRasG12C, 4 hours
Numbers only, in %.

Solved cases (3 shown):
{"molecule": "C=CC(=O)N1CCN2c3ncnc4c(F)c(-c5c(C)cccc5O)c(Cl)c(c34)OC[C@@H]2C1 (single isomer, unassigned) [Example 12]", "value kind": "KRasG12C M. S. Binding Mean adduct %", "reported measurement": 95}
{"molecule": "Cc1ccc2[nH]ncc2c1-c1c(Cl)c2c3c(ncnc3c1F)N1CCN(C(=O)/C=C/CN(C)C)C[C@H]1CO2 (single isomer, unassigned) [Example 30]", "value kind": "KRasG12C M. S. Binding Mean adduct %", "reported measurement": 94}
{"molecule": "C=CC(=O)N1CCN2c3ncnc4c(F)c(-c5c(C)ccc6nc[nH]c(=O)c56)c(Cl)c(c34)OC[C@@H]2C1 (single isomer, unassigned) [Example 6]", "value kind": "KRasG12C M. S. Binding Mean adduct %", "reported measurement": 95}

Each molecule below has a reported value. Please supply its KRasG12C M. S. Binding Mean adduct %.
1. C=CC(=O)N1C[C@H]2COc3c(Cl)c(-c4c(O)cccc4F)c(F)c4ncnc(c34)N2C[C@@H]1C [Example 3]
2. C=CC(=O)N1C[C@H]2COc3c(Cl)c(-c4c(O)cccc4F)c(F)c4ncnc(c34)N2C[C@H]1C (single isomer, unassigned) [Example 5]
3. C=CC(=O)N1CCN2c3ncnc4c(F)c(-c5c(C)ccc6cc[nH]c(=O)c56)c(Cl)c(c34)OC[C@@H]2C1 (single isomer, unassigned) [Example 17]
4. C=CC(=O)N1CCN2c3ncnc4c(F)c(-c5c(C)ccc6cc[nH]c(=O)c56)c(Cl)c(c34)OC[C@@H]2C1 (single isomer, unassigned) [Example 16]
5. C=CC(=O)N1CCN2c3ncnc4c(F)c(-c5c(F)ccc6[nH]nnc56)c(Cl)c(c34)OC[C@@H]2C1 (single isomer, unassigned) [Example 26]
6. CN(C)C/C=C/C(=O)N1CCN2c3ncnc4c(F)c(-c5c(O)cccc5F)c(Cl)c(c34)OC[C@@H]2C1 (single isomer, unassigned) [Example 14]
7. C=CC(=O)N1CCN2c3ncnc4c(F)c(-c5c(C)ccc6c5C(=O)NC6)c(Cl)c(c34)OC[C@@H]2C1 (single isomer, unassigned) [Example 2]
8. C=CC(=O)N1CCN2c3ncnc4c(F)c(-c5c(C)ccc6[nH]cnc56)c(Cl)c(c34)OC[C@@H]2C1 (single isomer, unassigned) [Example 8]

[A]
54
14
30
91
100
94
25
96
